- protocol: yeast display, Sf9 membrane polyspecificity reagent, FACS + sequencing; frameworks hold sequencing errors
property-measured: polyreactivity (PSR sort gate)

Solved entries:
{"sequence-string": "QVQLVESGGGLFQAGGSLRLSCAASGFIFRYYAMGWYRQAPGKERELVAAITRGGSTYYADSVKGRFTISRDNAKNTVYLQMNSLKPEDTAVYDCAARLYTQYYYWGQCTQVTVSS", "polyreactivity (PSR sort gate)": "high polyreactivity"}
{"sequence-string": "QVQLVESGGGLVQAGGSLRISCSASGSIFTGYAMGWYRPAPGKERELVAAISNSGTSTYYADSVKGRFTISRDNANNTVYLQMNSLKPEDTAVYYCNTVGHRWLSDDDYWGQGTQVTVSS", "polyreactivity (PSR sort gate)": "low polyreactivity"}
{"sequence-string": "QVQLVESGGGLVQAGGSLRLSCAASGITFGDYAMVWYRQAPGKERELVAGINWSGDGTYYADSLKGRFTISRDKAKNTVYLQMNSLKPEDSAVYYCAAETFYDYGGYDYWGQGTQVTVSS", "polyreactivity (PSR sort gate)": "low polyreactivity"}
{"sequence-string": "QVQLVESGGGLVHAGGSLRLSCAASGRTFATYAMGWYRQAPGKERELVAAITSGGSTYYADSVKGRFTISRDNAKNTVYLQMNSLKPEDTAVYYCAADLSTYRRGFDYWGQGTHVTVSS", "polyreactivity (PSR sort gate)": "high polyreactivity"}
{"sequence-string": "QVQLVESGGGLVQAGGSLRLSCAASGFTVGYNAMGWYRQAPGKERELVAAIDKRGDSTYADSVKGRFTISRDNAKNTVYLQMNSLKPEDTAVYYCAADSDSKYNYGFLWDTYESWGQGTQVTVSS", "polyreactivity (PSR sort gate)": "low polyreactivity"}

Input line: // polyreactivity (PSR sort gate) lookup, key: QVQLVESGGGLVQAGGSLRLSCAASGSTFYGYAMGWYRQAPGKERELVAVISWRGTSTYYADSVKGRFTISRDNAKNTVYLQMNSLKPEDTAVYYCAARGLWPYDYWGQGTQVTVSS
Output line: low polyreactivity

Input line: // polyreactivity (PSR sort gate) lookup, key: QVQLVESGGGLVQAGGSLRLSCAASGSTFFSYAMGWYRQAPGKEREFVAAISWIDDGTYYADSVKGRFTISRDNAKNTVYLQMNSLKPEDTAVYYCAADIGAYRTWDYEYWGQGTQVTVSS
Output line: low polyreactivity

Input line: // polyreactivity (PSR sort gate) lookup, key: QVQLVESGGGLVQAGGSLRLSSAASGRTISNYDMGWYRQAPGKERELVAAITYSGGSTYYADSVKGRFTISRDNAKNTVYLQMNSLKPEDTAVYYCAKISGTYYRYDYWGQGTQVTVSS
Output line: high polyreactivity

Input line: // polyreactivity (PSR sort gate) lookup, key: QVQLVESGGGLVQAGGSLRLSCAASGSIFFYYAMGWYRQAPGKERELVASISTDGSTYADSVKGRFTISRDNAKNTVSLQMNSLKPEDTAFYYCATRGAEAERFASYDFDYWGQGTQVTVSS
Output line: low polyreactivity

Input line: // polyreactivity (PSR sort gate) lookup, key: QVQLVESGGGLVQAGGSLRLSCAASGGTFYVNDMGWYRQAPGKERELVATITYSGTSTYYADSVKGRFTISRDNAKNTVYLQMNSLKAEDTAVYYCATDVLLYFEPVNLDYWGQGTQVTVSS
Output line: low polyreactivity

====

- protocol: yeast display, Sf9 membrane polyspecificity reagent, FACS + sequencing; frameworks hold sequencing errors
property-measured: polyreactivity (PSR sort gate)

{"sequence-string": "QVQLVESGGGLGQAGGSLRLSCAASGRIFYRYVMGWYRPAPGKERELVAAITTSGGRTYYADSVKGRFTISRDNAKNTVYLQLNSLKPEDTAVYDCAAASPTPVYWSGRDYYYWGQGTQVTVSS", "property-measured": "polyreactivity (PSR sort gate)", "measurement": "high polyreactivity"}
{"sequence-string": "QVQLVESGGGLVQAGGSLRLSCAASGRTFRLYAMGWYRQATGTETELVAAISSRGGSTYYADSVKGRFTISRDNAKNTVYLQMNSLKPEDTAVYYCAKGLGSGQEIYGYDYWGQGTQVTVSS", "property-measured": "polyreactivity (PSR sort gate)", "measurement": "high polyreactivity"}

====

- protocol: yeast display, Sf9 membrane polyspecificity reagent, FACS + sequencing; frameworks hold sequencing errors
property-measured: polyreactivity (PSR sort gate)

{"sequence-string": "QVQLVESGGGLDQAGGSLRLICADSGSIFYIYAMGWYIHAPGKETELVASISGSGSTYYADSVKGRFRISRDNAKNTVYLQMNSLKPEDTAVYYCAVELWRVWGAYSYTYDYWGQGTQVTVSS", "property-measured": "polyreactivity (PSR sort gate)", "measurement": "high polyreactivity"}
{"sequence-string": "QVQLVESGGGLVQAGGSLRLSCAASGRTFKTYARGWYREAPGKERELVAAISRDGRTYYADSVKGRFTISRDNAKNTVYLQRNSLKPEDTAVYYCAVGIYDHLYNHEYWGQGTQVTVSS", "property-measured": "polyreactivity (PSR sort gate)", "measurement": "low polyreactivity"}
{"sequence-string": "QVHLVESAGGLVQAGGSLSLSCHASGSTFVWNAMGWYRQAPGKEMELVATMTLSTGSTYYADSVKGRFTISRDNAKNTVYLQMNSLKPEDTAVYYCNTEIFVDIIYDYGLWGQGTQVTVSS", "property-measured": "polyreactivity (PSR sort gate)", "measurement": "low polyreactivity"}
{"sequence-string": "QVQLVESGGGLVQAGGSLRLSCAASGRIFYRNAMGWYRQAAGKERELVAGITRGGSTNYADSVKGRFTISRDNAKNTDYLQMNSLKPEETAVYYCAKAIPAKFYSEAGYDYWGQGTQVTVSS", "property-measured": "polyreactivity (PSR sort gate)", "measurement": "low polyreactivity"}
{"sequence-string": "QVQLVESGGGLVQAGGSLRLSCAASGRTFQTNVMGWYRQAPGEERELVAAITLSGGSTNYADSVKGRFSISRDNAMYTVYLQMNSLKPEDTAVYYCNAERRYRHQWTPHYEYDYWGQGTQVTVSS", "property-measured": "polyreactivity (PSR sort gate)", "measurement": "low polyreactivity"}

Input line: // polyreactivity (PSR sort gate) lookup, key: QVQLVESGGGLVQAGGSLRLSCAASGLIFSAYAMGWYRQAPGKERELVAGISRRGSTYYADSVKGRFTISRDNAKNTVYLQMNSLKPEDTAVYYCAAYFRVRFRASGYDYWGQGTQVTVSS
Output line: high polyreactivity

Input line: // polyreactivity (PSR sort gate) lookup, key: QVQLVESGGGIVQAGGSLRLSCAASGSTFETNAMGRDRQAPGKERELVAAIRWSTGNTYYADSVNGRFTISRDNAKNTVYLQMNSLITEDTAVYYCAAYKAKHYKDGYWGQGTQVSVSS
Output line: low polyreactivity

Input line: // polyreactivity (PSR sort gate) lookup, key: QVQLVESGGGLVQAGGSLRLSFAASGFTFVNYAMGWYRQAPGKDRELVAAIRRSGSRTYYADSVKGRFTISRDKAKNTVYLQKNSLKPEDTAVYYCAAVWYSLYGNWGQGNQVTVSS
Output line: low polyreactivity

Input line: // polyreactivity (PSR sort gate) lookup, key: QVQLVESGGGLVQAGGSLRLSCDASGSIFGVNAMGWYRQAPGKERELVAAINNGGSTKYADSVKGRFTISRDNAKNTVYLQMNSLKPEDTAVYYCAARSWTHYFRFDYWGQGTQVTVSS
Output line: high polyreactivity

Input line: // polyreactivity (PSR sort gate) lookup, key: QVQLVESGGGLVQAGGSLRLSCAASGYIFPYNAMGWYRQAPGKERELVAAISASGGTTYYADSVKGRFTISRDNAKNTVYLQMNSLKPEDTAVYYCAASFAVTSGHHYEYWGQGTQVTVSS
Output line: high polyreactivity

Input line: // polyreactivity (PSR sort gate) lookup, key: QVQLVESGGGLVQAGGILRLICAASGSTFPYNAMGWYRQAPGKERELVAAISSGGSTYYADSVNGRFTISRDNAKNTVYLELNSQKPEDTAVYYCAASLGKYIRSLGYGYWGQGTQVTVSS
Output line: high polyreactivity

====

- protocol: yeast display, Sf9 membrane polyspecificity reagent, FACS + sequencing; frameworks hold sequencing errors
property-measured: polyreactivity (PSR sort gate)

{"sequence-string": "QVQLVESGGGLVQAGGSLRLSCAASGGTFTYYAMGWYRQAPGKVRELVAAISWSGGSTYYADSVKGRFTISRDIAKNSVYLQMNSLKPEDSAVYYCAADYTGHFYYYWGQGTQVTVSS", "polyreactivity (PSR sort gate)": "low polyreactivity"}
{"sequence-string": "QVQLVESGGGLVQAGGSLRLSCAASGRIFYKYAMGWYRQAPGKERELVAAISTGGTRTYYADSVKGRFTISRDNAKNTVYLQMNSLKPEDTAVYYCAARGGDKTYYYWGQGTQVTVSS", "polyreactivity (PSR sort gate)": "high polyreactivity"}
{"sequence-string": "QVQLVESGGGLVQAGGSLRLSCAASGFIFGYYAMGWYRQAPAKERELVAAINWSGGSTYYADSVKGRFTISRDNAKNTVYLQMNSLKPEDTAVYYCAARYPYRRGGQDSYYYWGQGTQVTVSS", "polyreactivity (PSR sort gate)": "high polyreactivity"}
{"sequence-string": "QVQLVESGGGLVQAGGSLRLSCAASGSTLGYYAKGWYRQAPGKERELVATITRSGGNTYYADSVKGRFTISRDNAKNTVYLQMNSLKPEDTAVYYCAARRLYGSQRGYWGQGTQLTVSS", "polyreactivity (PSR sort gate)": "high polyreactivity"}
{"sequence-string": "QVQLVDSGGGLVQAGGSLRLSCAASGLTFYHYTMGWYRQAPGKERELVPAITKNGGSTYYADSVKGRFTISRDNAKNTVYLQMNSLKPEDSAVYYCAAYEFGLLRYYSGRSYYYWGQGTQVTVSS", "polyreactivity (PSR sort gate)": "high polyreactivity"}
{"sequence-string": "QFQLVESGGGLVQAGGSLRLSSAASGFIIRYYAMGWYRQAPGKERELVAAISASGGSTYYADSVKGRFTISRDNAKNTVYLQMNSLKPEDTAVYYCAARYWLREDYWGQGTQVTVSS", "polyreactivity (PSR sort gate)": "high polyreactivity"}

Input line: // polyreactivity (PSR sort gate) lookup, key: QVQLVESGGGLVQAGGSHRLSCAASGRTFSPYVMGWSREAPGKEREYVARITWSGGSTYYADSVKGRFTISRDNAMYTVYLQMNSLKPEDTAVYYCNARGVFYVYKHDYWGQGTQVTVSS
Output line: high polyreactivity

Input line: // polyreactivity (PSR sort gate) lookup, key: QVQLVESGGGLVQAGGSLRLSCAASGSILRQYAMGWYRQAPGKERELVATITGDGSTNYADSVKGRFTISRDNAKNTVYLQMNSLKPEDTAVYYCNAELPVHWSWYDYWGQGTQVTVSS
Output line: low polyreactivity

Input line: // polyreactivity (PSR sort gate) lookup, key: QVQLVESGGGLVQAGGSLRLSCAASGSIFRYAMGWYRQAPGKERELVATISESGGRTYYADSVKGRFTISRDNANNTVYLQMNSLKPEDTAVYYCAADLKYYYGYRPWFQGGYWGQGTQVTVSS
Output line: low polyreactivity

Input line: // polyreactivity (PSR sort gate) lookup, key: QVHLVESGGGLVQAGGSLRLSCAASGSLSVRNVMGWYSQAPGKERELVATIRRSGGSTSYADSVKGRFTISRDNSKNSVYLQMNSLKPEDTAVYYCAAVVYTTYRRYDYWGQGTQVNVSS
Output line: low polyreactivity

Input line: // polyreactivity (PSR sort gate) lookup, key: QVQLVESGGGLVQAGGSLPLSCAASGLTIFVNAMGWYRQAPGKERELVATISGGGSTYYADSVKGRFTISRDNAKNTVYLQMNSLKREDTAVYYCNAADVGGPWWYPYTYNYWGQGTQVTVSS
Output line: low polyreactivity
